System name: T1, SARS-CoV-2 RBD protein T478K mutant (SARS-CoV-2, UniProt P0DTC2 319-541)
T1 construct: domain: RBD
Assay: SPR, Biacore 8K, RBD on CM5 chip, IgG injected, 1:1 model
Experimental readout: Kd
Give the figure together with its unit, number first.

# Binder, Kd
rows = [
    ("VacW-212 (antibody, V domains shown) VH: EVQLVESGGGLVQPGGSLRLSCAASGFTFSSYWMNWVRQAPGKGLEWVANIKQDESEKYYVDSVKGRFTISRDNAKNSLFLQMNSLRVEDTAVYYCARMEYPYGGIDYWGQGTLVTVSA VL: NFMLTQPHSVSESPGKTVTISCTGSSGSIASNYVQWYQQRPGSAPTTVIYEDNQRPSGVPDRFSGSIDSSSNSASLTISGLKTEDEADYYCQSYDSSNRNWVFGGGTKLTVL", "1220 pM"),
]

May I ask what Kd has been recorded for VacW-215 (antibody, V domains shown) VH: EVQLVESGGGLIQPGGSLRLSCAASGFTVSSNYMSWVRQAPGKGLEWVSVIYSGGSTYYADSVKGRFTISRDNSKNTLYLQMNSLRAEDTAVYYCARSTWLRGGFDYWGQGTLVTVSS VL: NFMLTQPHSVSESPGKTVTISCTGSSGSIASNYVQWYQQRPGSAPTTVIYEDNQRPSGVPDRFSGSIDSSSNSASLTISGLKTEDEADYYCQSYDSSNHFYVFGTGTKVTVL ?
683 pM

Would you mind doing VacW-201 (antibody, V domains shown) VH: EVQLVESGGGLVQPGGSLRLSCAASGFTFSSYWMNWVRQAPGKGLEWVANIKQDGSEKYYVDSVKGRFTISRDNAKNSLYLQMNSLRAEDTAVYYCARMEYPYGGVDYWGQGTLVTVSS VL: NFMLTQPHSVSESPGKTVTISCTGSSGSIASNYVQWYQQRPGSAPTTVIYEDNQRPSGVPDRFSGSIDSSSNSASLTISGLKTEDEADYYCQSYDSSNRNWVFGGGTKLTVL as well?
1640 pM

How about VacW-209 (antibody, V domains shown) VH: QVQLVESGGGVVQPGRSLRLSCAASGFTFSSIAMHWVRQAPGKGLEWVAVMSFDGSIKYYGDSVKGRFTISRDNSKSTLYLQMNSLRAEDTAVYYCARGVQGYYDRSGYYNLDYNYGMDVWGQGTTVTVSS VL: QSVLTQPPSVSGAPGQRVTISCTGSSSNIGAGYDVHWYQQLPGTAPKLLIYGNSNRPSGVPDRFSGSKSGTSASLAITGLQAEDEADYYCQSYDSSLSGWVFGGGTKLTVL ?
23 pM
